# Study system: T1, human VEGF (hVEGF) (human, UniProt P15692 181-395)
# T1 construct: also called VEGF-A
# T1 sequence: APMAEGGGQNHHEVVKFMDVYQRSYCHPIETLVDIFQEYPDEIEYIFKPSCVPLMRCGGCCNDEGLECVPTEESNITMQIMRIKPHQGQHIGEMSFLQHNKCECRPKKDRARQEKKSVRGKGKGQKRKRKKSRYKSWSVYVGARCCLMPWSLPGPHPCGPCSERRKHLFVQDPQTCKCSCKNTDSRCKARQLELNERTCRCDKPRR
# Protocol notes: SPR single-cycle;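 also: fab variants injected over hVEGF immobilized on a CM5 chip (Biacore T200), threefold dilution series from 0.02 to 50 nM, kinetics fitted with a 1:1 Langmuir model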
Recorded endpoint: Fold change (relative to G6.31)

Worked cases, Fold change (relative to G6.31) given:
G6.31 HC-Q81E (Fab, name in Kabat numbering, V domains shown, Fab) VH: EVQLVESGGGLVQPGGSLRLSCAASGFTISDYWIHWVRQAPGKGLEWVAGITPAGGYTYYADSVKGRFTISADTSKNTAYLEMNSLRAEDTAVYYCARFVFFLPYAMDYWGQGTLVTVSS VL: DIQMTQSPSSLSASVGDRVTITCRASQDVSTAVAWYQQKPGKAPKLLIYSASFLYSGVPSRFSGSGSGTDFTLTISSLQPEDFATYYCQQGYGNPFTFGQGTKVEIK
0.8 fold
G6.31 HC-K43E (Fab, name in Kabat numbering, V domains shown, Fab) VH: EVQLVESGGGLVQPGGSLRLSCAASGFTISDYWIHWVRQAPGEGLEWVAGITPAGGYTYYADSVKGRFTISADTSKNTAYLQMNSLRAEDTAVYYCARFVFFLPYAMDYWGQGTLVTVSS VL: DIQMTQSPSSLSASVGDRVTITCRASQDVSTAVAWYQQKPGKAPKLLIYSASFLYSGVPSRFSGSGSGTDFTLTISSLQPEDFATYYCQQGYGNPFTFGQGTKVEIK
1.3 fold
G6.31 HC-A60E (Fab, name in Kabat numbering, V domains shown, Fab) VH: EVQLVESGGGLVQPGGSLRLSCAASGFTISDYWIHWVRQAPGKGLEWVAGITPAGGYTYYEDSVKGRFTISADTSKNTAYLQMNSLRAEDTAVYYCARFVFFLPYAMDYWGQGTLVTVSS VL: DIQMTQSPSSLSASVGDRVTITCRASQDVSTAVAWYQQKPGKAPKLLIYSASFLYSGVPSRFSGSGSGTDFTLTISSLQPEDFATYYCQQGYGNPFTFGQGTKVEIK
1.6 fold
G6.31 HC-K64E (Fab, name in Kabat numbering, V domains shown, Fab) VH: EVQLVESGGGLVQPGGSLRLSCAASGFTISDYWIHWVRQAPGKGLEWVAGITPAGGYTYYADSVEGRFTISADTSKNTAYLQMNSLRAEDTAVYYCARFVFFLPYAMDYWGQGTLVTVSS VL: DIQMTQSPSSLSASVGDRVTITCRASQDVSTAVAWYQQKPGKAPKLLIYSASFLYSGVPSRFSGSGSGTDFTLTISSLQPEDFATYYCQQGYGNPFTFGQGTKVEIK
2.4 fold

Which Fold change (relative to G6.31) is reported for this binder? G6.31 HC-K75E (Fab, name in Kabat numbering, V domains shown, Fab) VH: EVQLVESGGGLVQPGGSLRLSCAASGFTISDYWIHWVRQAPGKGLEWVAGITPAGGYTYYADSVKGRFTISADTSENTAYLQMNSLRAEDTAVYYCARFVFFLPYAMDYWGQGTLVTVSS VL: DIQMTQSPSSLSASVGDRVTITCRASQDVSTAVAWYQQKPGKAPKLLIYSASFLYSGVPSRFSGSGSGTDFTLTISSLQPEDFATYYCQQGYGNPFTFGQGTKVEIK
0.8 fold

Which Fold change (relative to G6.31) is reported for this binder? G6.31 HC-A71E (Fab, name in Kabat numbering, V domains shown, Fab) VH: EVQLVESGGGLVQPGGSLRLSCAASGFTISDYWIHWVRQAPGKGLEWVAGITPAGGYTYYADSVKGRFTISEDTSKNTAYLQMNSLRAEDTAVYYCARFVFFLPYAMDYWGQGTLVTVSS VL: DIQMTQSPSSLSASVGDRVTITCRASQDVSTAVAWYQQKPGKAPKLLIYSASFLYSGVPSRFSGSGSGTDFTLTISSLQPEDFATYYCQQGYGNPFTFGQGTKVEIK
1.1 fold

Which Fold change (relative to G6.31) is reported for this binder? G6.31 HC-T28K (Fab, name in Kabat numbering, V domains shown, Fab) VH: EVQLVESGGGLVQPGGSLRLSCAASGFKISDYWIHWVRQAPGKGLEWVAGITPAGGYTYYADSVKGRFTISADTSKNTAYLQMNSLRAEDTAVYYCARFVFFLPYAMDYWGQGTLVTVSS VL: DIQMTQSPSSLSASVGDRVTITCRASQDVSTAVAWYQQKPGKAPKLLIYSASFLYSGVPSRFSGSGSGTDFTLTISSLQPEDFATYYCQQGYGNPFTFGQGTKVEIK
4 fold
